This collection of values is drawn from ChEMBL document CHEMBL1156009.

Give EC50 for every item shown.
- target-entity: Glucagon-like peptide 1 receptor (Homo sapiens, UniProt P43220)
- Sequence (P43220 whole entry): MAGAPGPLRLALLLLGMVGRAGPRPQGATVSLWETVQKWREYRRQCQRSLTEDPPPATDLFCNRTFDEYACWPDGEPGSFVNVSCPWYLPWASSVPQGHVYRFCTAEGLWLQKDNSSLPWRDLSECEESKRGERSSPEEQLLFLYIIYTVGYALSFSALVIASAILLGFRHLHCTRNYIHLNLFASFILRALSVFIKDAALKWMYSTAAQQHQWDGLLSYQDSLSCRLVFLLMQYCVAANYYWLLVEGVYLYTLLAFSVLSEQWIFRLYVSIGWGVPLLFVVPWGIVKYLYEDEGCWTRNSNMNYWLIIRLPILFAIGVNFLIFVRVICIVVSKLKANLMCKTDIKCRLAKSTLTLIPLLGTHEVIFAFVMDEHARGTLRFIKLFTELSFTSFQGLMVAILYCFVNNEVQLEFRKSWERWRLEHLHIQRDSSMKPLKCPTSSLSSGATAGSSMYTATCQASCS
- assay-notes: Agonist activity at human GLP1R expressed in CHO cells assessed as stimulation of intracellular [3H]cAMP accumulation after 30 mins by scintillation proximity assay
One number for each entry, in nM.

Cc1ccc(-c2ccc(C[C@H](NC(=O)[C@H](Cc3ccc(-c4ccccc4C)cc3)NC(=O)[C@H](CC(=O)O)NC(=O)[C@H](CO)NC(=O)[C@@H](NC(=O)[C@H](Cc3ccccc3)NC(=O)[C@@H](NC(=O)CNC(=O)[C@H](CCC(=O)O)NC(=O)[C@H](C)NC(=O)[C@@H](N)Cc3cnc[nH]3)[C@@H](C)O)[C@@H](C)O)C(N)=O)cc2)cc1; 95

*Q* What value of EC50 has been reported for the following compound? `COc1ccc(-c2ccc(C[C@H](NC(=O)[C@H](CC(=O)O)NC(=O)[C@H](CO)NC(=O)[C@@H](NC(=O)[C@H](Cc3ccccc3)NC(=O)[C@@H](NC(=O)CNC(=O)[C@H](CCC(=O)O)NC(=O)[C@H](C)NC(=O)[C@@H](N)Cc3cnc[nH]3)[C@@H](C)O)[C@@H](C)O)C(=O)N[C@@H](Cc3ccc(-c4ccccc4C)cc3)C(N)=O)cc2)c(C)c1`
*A* 35

====

- target-entity: Glucagon-like peptide 1 receptor (Homo sapiens)
- assay-notes: Agonist activity at human GLP1R expressed in CHO cells assessed as stimulation of intracellular [3H]cAMP accumulation after 30 mins by scintillation proximity assay
Square brackets hold non-standard residues; d marks the D form. Peptide text beside a SMILES is read from it. Bip(2'-Et-4'-OMe) = CCc1cc(OC)ccc1-c1ccc(C[C@H](N)C(=O)O)cc1; Bip(2'-Me) = Cc1ccccc1-c1ccc(C[C@H](N)C(=O)O)cc1; αMePhe(2-F) = C[C@](N)(Cc1ccccc1F)C(=O)O; Aib = CC(C)(N)C(=O)O
assay-readout: pEC50
One number for each entry, as −log10 of the molar value.

C[C@H](NC(=O)[C@@H](N)Cc1cnc[nH]1)C(=O)N[C@@H](CCC(=O)O)C(=O)NCC(=O)N[C@H](C(=O)N[C@@H](Cc1ccccc1)C(=O)N[C@H](C(=O)N[C@@H](CO)C(=O)N[C@@H](CC(=O)O)C(=O)N[C@@H](Cc1ccc(-c2ccccc2)cc1)C(=O)N[C@@H](Cc1ccc(-c2ccccc2)cc1)C(N)=O)[C@@H](C)O)[C@@H](C)O; 6.26

We now examine a further compound.
*Q* Report pEC50 for CCc1cc(OC)ccc1-c1ccc(C[C@H](NC(=O)[C@H](CC(=O)O)NC(=O)[C@H](CO)NC(=O)[C@@H](NC(=O)[C@](C)(Cc2ccccc2F)NC(=O)[C@@H](NC(=O)CNC(=O)[C@H](CCC(=O)O)NC(=O)C(C)(C)NC(=O)[C@@H](N)Cc2cnc[nH]2)[C@@H](C)O)[C@@H](C)O)C(=O)N[C@@H](Cc2ccc(-c3ccccc3C)cc2)C(N)=O)cc1 (H-H[Aib]EGT[αMePhe(2-F)]TSD[Bip(2'-Et-4'-OMe)][Bip(2'-Me)]-NH2) please.
*A* 10.06

====

- target-entity: Glucagon-like peptide 1 receptor (Homo sapiens, UniProt P43220)
- assay-notes: Agonist activity at human GLP1R expressed in CHO cells assessed as stimulation of intracellular [3H]cAMP accumulation after 30 mins by scintillation proximity assay
- Type: functional, cell-based
assay-readout: EC50 (nM)
Numbers only, in nM.

CCc1ccccc1-c1ccc(C[C@H](NC(=O)[C@H](CC(=O)O)NC(=O)[C@H](CO)NC(=O)[C@@H](NC(=O)[C@H](Cc2ccccc2)NC(=O)[C@@H](NC(=O)CNC(=O)[C@H](CCC(=O)O)NC(=O)[C@H](C)NC(=O)[C@@H](N)Cc2cnc[nH]2)[C@@H](C)O)[C@@H](C)O)C(=O)N[C@@H](Cc2ccc(-c3ccccc3)cc2)C(N)=O)cc1; 27

Now consider the entry below.
*Q* Reported EC50 for `CCc1ccccc1-c1ccc(C[C@H](NC(=O)[C@H](CC(=O)O)NC(=O)[C@H](CO)NC(=O)[C@@H](NC(=O)[C@H](Cc2ccccc2)NC(=O)[C@@H](NC(=O)CNC(=O)[C@H](CCC(=O)O)NC(=O)[C@H](C)NC(=O)[C@@H](N)Cc2cnc[nH]2)[C@@H](C)O)[C@@H](C)O)C(=O)N[C@@H](Cc2ccc(-c3ccccc3C)cc2)C(N)=O)cc1` : what is it?
*A* 22

====

- target-entity: Glucagon-like peptide 1 receptor (Homo sapiens)
- assay-notes: Agonist activity at human GLP1R expressed in CHO cells assessed as stimulation of intracellular [3H]cAMP accumulation after 30 mins by scintillation proximity assay
Square brackets hold non-standard residues; d marks the D form. Peptide text beside a SMILES is read from it. Bip(2'-Et-4'-OMe) = CCc1cc(OC)ccc1-c1ccc(C[C@H](N)C(=O)O)cc1; Bip(2'-Me) = Cc1ccccc1-c1ccc(C[C@H](N)C(=O)O)cc1; αMePhe(2,6-F2) = C[C@](N)(Cc1c(F)cccc1F)C(=O)O; αMeF = C[C@](N)(Cc1ccccc1)C(=O)O; Aib = CC(C)(N)C(=O)O
assay-readout: EC50 (nM)
Answers are plain numbers, in nM.

CCc1cc(OC)ccc1-c1ccc(C[C@H](NC(=O)[C@H](CC(=O)O)NC(=O)[C@H](CO)NC(=O)[C@@H](NC(=O)[C@](C)(Cc2ccccc2)NC(=O)[C@@H](NC(=O)CNC(=O)[C@H](CCC(=O)O)NC(=O)[C@H](C)NC(=O)[C@@H](N)Cc2cnc[nH]2)[C@@H](C)O)[C@@H](C)O)C(=O)N[C@@H](Cc2ccc(-c3ccccc3C)cc2)C(N)=O)cc1 (H-HAEGT[αMeF]TSD[Bip(2'-Et-4'-OMe)][Bip(2'-Me)]-NH2); 2.4
CCc1cc(OC)ccc1-c1ccc(C[C@H](NC(=O)[C@H](CC(=O)O)NC(=O)[C@H](CO)NC(=O)[C@@H](NC(=O)[C@](C)(Cc2c(F)cccc2F)NC(=O)[C@@H](NC(=O)CNC(=O)[C@H](CCC(=O)O)NC(=O)C(C)(C)NC(=O)[C@@H](N)Cc2cnc[nH]2)[C@@H](C)O)[C@@H](C)O)C(=O)N[C@@H](Cc2ccc(-c3ccccc3C)cc2)C(N)=O)cc1 (H-H[Aib]EGT[αMePhe(2,6-F2)]TSD[Bip(2'-Et-4'-OMe)][Bip(2'-Me)]-NH2); 0.12
COc1cccc(-c2ccc(C[C@H](NC(=O)[C@H](CC(=O)O)NC(=O)[C@H](CO)NC(=O)[C@@H](NC(=O)[C@H](Cc3ccccc3)NC(=O)[C@@H](NC(=O)CNC(=O)[C@H](CCC(=O)O)NC(=O)[C@H](C)NC(=O)[C@@H](N)Cc3cnc[nH]3)[C@@H](C)O)[C@@H](C)O)C(=O)N[C@@H](Cc3ccc(-c4ccccc4C)cc3)C(N)=O)cc2)c1; 965

Report EC50 for each item below.
1. Cc1ccc(-c2ccc(C[C@H](NC(=O)[C@H](Cc3ccc(-c4ccccc4)cc3)NC(=O)[C@H](CC(=O)O)NC(=O)[C@H](CO)NC(=O)[C@@H](NC(=O)[C@H](Cc3ccccc3)NC(=O)[C@@H](NC(=O)CNC(=O)[C@H](CCC(=O)O)NC(=O)[C@H](C)NC(=O)[C@@H](N)Cc3cnc[nH]3)[C@@H](C)O)[C@@H](C)O)C(N)=O)cc2)cc1
2. C[C@H](NC(=O)[C@@H](N)Cc1cnc[nH]1)C(=O)N[C@@H](CCC(=O)O)C(=O)NCC(=O)N[C@H](C(=O)N[C@@H](Cc1ccccc1)C(=O)N[C@H](C(=O)N[C@@H](CO)C(=O)N[C@@H](CC(=O)O)C(=O)N[C@@H](Cc1ccc(-c2ccccc2)cc1)C(=O)N[C@@H](Cc1ccc(-c2ccccc2)cc1)C(=O)N[C@@H](Cc1ccc(-c2ccccc2)cc1)C(N)=O)[C@@H](C)O)[C@@H](C)O

*A*
[270, 787]

====

- target-entity: Glucagon-like peptide 1 receptor (Homo sapiens)
- assay-notes: Agonist activity at human GLP1R expressed in CHO cells assessed as stimulation of intracellular [3H]cAMP accumulation after 30 mins by scintillation proximity assay
Square brackets hold non-standard residues; d marks the D form. Peptide text beside a SMILES is read from it. Bip(2'-Et-4'-OMe) = CCc1cc(OC)ccc1-c1ccc(C[C@H](N)C(=O)O)cc1; Bip(2'-Me) = Cc1ccccc1-c1ccc(C[C@H](N)C(=O)O)cc1; αMeF = C[C@](N)(Cc1ccccc1)C(=O)O; Aib = CC(C)(N)C(=O)O
assay-readout: pEC50
Numbers only, as −log10 of the molar value.

Some compounds with recorded pEC50:
CCc1cc(OC)ccc1-c1ccc(C[C@H](NC(=O)[C@H](CC(=O)O)NC(=O)[C@H](CO)NC(=O)[C@@H](NC(=O)[C@](C)(Cc2ccccc2)NC(=O)[C@@H](NC(=O)CNC(=O)[C@H](CCC(=O)O)NC(=O)C(C)(C)NC(=O)[C@@H](N)Cc2cnc[nH]2)[C@@H](C)O)[C@@H](C)O)C(=O)N[C@@H](Cc2ccc(-c3ccccc3C)cc2)C(N)=O)cc1 (H-H[Aib]EGT[αMeF]TSD[Bip(2'-Et-4'-OMe)][Bip(2'-Me)]-NH2); 9.55
CCc1cc(OC)ccc1-c1ccc(C[C@H](NC(=O)[C@H](CC(=O)O)NC(=O)[C@H](CO)NC(=O)[C@@H](NC(=O)[C@H](Cc2ccccc2)NC(=O)[C@@H](NC(=O)CNC(=O)[C@H](CCC(=O)O)NC(=O)[C@H](C)NC(=O)[C@@H](N)Cc2cnc[nH]2)[C@@H](C)O)[C@@H](C)O)C(=O)N[C@@H](Cc2ccc(-c3ccccc3C)cc2)C(N)=O)cc1; 8.15

// next item, pEC50 requested
*Q* So what pEC50 did `Cc1cccc(-c2ccc(C[C@H](NC(=O)[C@H](Cc3ccc(-c4ccccc4C)cc3)NC(=O)[C@H](CC(=O)O)NC(=O)[C@H](CO)NC(=O)[C@@H](NC(=O)[C@H](Cc3ccccc3)NC(=O)[C@@H](NC(=O)CNC(=O)[C@H](CCC(=O)O)NC(=O)[C@H](C)NC(=O)[C@@H](N)Cc3cnc[nH]3)[C@@H](C)O)[C@@H](C)O)C(N)=O)cc2)c1` get with Glucagon-like peptide 1 receptor (Homo sapiens)?
*A* 7.06
